assay: AUC in rat at 4.1 mg/kg, po; format: ADME, organism-based; set-up: dose 4.1 mg/kg, route oral; settings: plasma
ASSAY_READOUT: AUC (ng·h/mL)
Use ng·h/mL as the unit, but write only the number.

[Q] Fill blank: measured AUC of the compound "CCCN1CCC(c2nc3cccc(C(N)=O)c3[nH]2)CC1" is ____.
[A] 700

---

Reported AUC values follow for various compounds
test: AUC in CD1 mouse at 10 mg/kg, po; type: ADME, organism-based; parameters: dose 10 mg/kg, route oral; details: plasma
Use ng·h/mL as the unit, but write only the number.

These recorded examples may help you get a feel for the data.
                                   compound  measured
0  NC(=O)c1cccc2[nH]c(C3CCN(CCc4ccccc4)C3)nc12 (configuration not stated)      1300
1  CC(C)N1CCCC(c2nc3cccc(C(N)=O)c3[nH]2)C1 (configuration not stated)      1200
2  CC(C)N1CCC(c2nc3c(C(N)=O)cc(Cl)cc3[nH]2)CC1      1700
3  NC(=O)c1cccc2[nH]c(C3CCCNC3)nc12 (configuration not stated)      1000
4       NC(=O)c1cccc2[nH]c([C@H]3CCCN3)nc12      3400

[Q] Fill blank: measured AUC of the compound "CCCN1CCC(c2nc3cccc(C(N)=O)c3[nH]2)CC1" is ____.
[A] 1200

[Q] Fill blank: measured AUC of the compound "CN1CCC[C@@H]1c1nc2c(C(N)=O)cccc2[nH]1" is ____.
[A] 40

---

target: Poly [ADP-ribose] polymerase 1 (Homo sapiens)
Sequence (P09874 whole entry): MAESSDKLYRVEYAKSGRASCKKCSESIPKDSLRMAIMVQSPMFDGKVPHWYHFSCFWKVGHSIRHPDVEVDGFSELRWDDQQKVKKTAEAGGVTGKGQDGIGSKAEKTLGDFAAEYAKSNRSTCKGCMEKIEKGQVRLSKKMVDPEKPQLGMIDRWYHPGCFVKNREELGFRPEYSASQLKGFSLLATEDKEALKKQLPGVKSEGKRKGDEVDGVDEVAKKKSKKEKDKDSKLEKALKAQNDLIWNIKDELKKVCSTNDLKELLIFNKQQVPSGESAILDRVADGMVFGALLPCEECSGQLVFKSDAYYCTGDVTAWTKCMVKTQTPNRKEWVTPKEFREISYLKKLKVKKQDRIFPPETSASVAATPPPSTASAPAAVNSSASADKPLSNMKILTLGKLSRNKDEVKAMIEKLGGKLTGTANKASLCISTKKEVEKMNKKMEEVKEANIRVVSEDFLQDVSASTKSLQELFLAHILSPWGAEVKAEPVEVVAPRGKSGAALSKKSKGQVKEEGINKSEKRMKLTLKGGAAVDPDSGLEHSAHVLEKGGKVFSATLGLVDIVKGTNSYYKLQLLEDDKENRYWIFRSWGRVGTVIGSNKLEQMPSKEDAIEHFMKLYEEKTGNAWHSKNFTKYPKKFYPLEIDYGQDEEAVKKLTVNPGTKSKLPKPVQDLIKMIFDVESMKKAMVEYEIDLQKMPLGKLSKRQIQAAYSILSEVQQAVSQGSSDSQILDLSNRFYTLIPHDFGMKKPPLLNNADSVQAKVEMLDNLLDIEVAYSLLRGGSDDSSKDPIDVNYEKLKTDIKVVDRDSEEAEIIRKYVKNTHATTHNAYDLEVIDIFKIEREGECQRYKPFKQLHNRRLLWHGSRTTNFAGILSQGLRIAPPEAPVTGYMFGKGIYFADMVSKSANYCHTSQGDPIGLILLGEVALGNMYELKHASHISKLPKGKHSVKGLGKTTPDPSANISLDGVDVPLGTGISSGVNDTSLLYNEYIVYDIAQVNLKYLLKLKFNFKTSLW
pEC50: −log10 of the molar value.
Lab note: anything with pEC50 at or over 8 counts as TRUE; the rest go in FALSE.

Some solved entries appear below for comparison.
In [3]: df
Out[3]:
                                   compound  label
0  CN(C)S(=O)(=O)N1CCC(c2nc3c(C(N)=O)cccc3[nH]2)CC1  FALSE
1  NC(=O)c1cccc2[nH]c(C3CCCNC3)nc12 (stereo unspecified)  FALSE

[Q] Could you tell me if the measured pEC50 of CCCN1CCC(c2nc3c(C(N)=O)cccc3[nH]2)C1 (stereo unspecified) reaches 8 or more?
[A] TRUE

[Q] Could you tell me if the measured pEC50 of "CCCN1CCC(c2nc3cccc(C(N)=O)c3[nH]2)CC1" reaches 8 or more?
[A] TRUE

[Q] Could you tell me if the measured pEC50 of COC1CCC(c2nc3cccc(C(N)=O)c3[nH]2)CC1 (stereo unspecified) reaches 8 or more?
[A] FALSE

[Q] Could you tell me if the measured pEC50 of "NC(=O)c1cccc2[nH]c(C3CCNCC3)nc12" reaches 8 or more?
[A] FALSE

[Q] Could you tell me if the measured pEC50 of "NC(=O)c1cccc2[nH]c(C3CCN(S(=O)(=O)c4ccccc4)CC3)nc12" reaches 8 or more?
[A] FALSE

---

test: Oral bioavailability in monkey at 4.1 mg/kg; type: ADME, organism-based, Macaca mulatta; conditions: rhesus monkey, in vivo
ASSAY_READOUT: bioavailability

[Q] Fill blank: measured bioavailability of the compound "CCCN1CCC(c2nc3cccc(C(N)=O)c3[nH]2)CC1" is ____.
[A] 32%

---

test: Oral bioavailability in CD1 mouse at 10 mg/kg; type: ADME, organism-based; details: in vivo
Reported bioavailability values follow for various compounds
Use % as the unit, but write only the number.

In [3]: df
Out[3]:
                                   compound    assay_readout  measure_unit  measured
0  NC(=O)c1cccc2[nH]c(C3CCCNC3)nc12 (configuration not stated)  bioavailability             %        26
1     CN1CCC[C@@H]1c1nc2c(C(N)=O)cccc2[nH]1  bioavailability             %        25

[Q] Fill blank: measured bioavailability of the compound NC(=O)c1cccc2[nH]c(C3CCN(CCc4ccccc4)C3)nc12 (configuration not stated) is ____.
[A] 89

[Q] Fill blank: measured bioavailability of the compound "NC(=O)c1cccc2[nH]c([C@H]3CCCN3)nc12" is ____.
[A] 100

---

test: Volume of distribution at steady state in rat at 4.1 mg/kg; assay type: ADME, organism-based; set-up: dose 4.1 mg/kg; details: in vivo, read-out: Vdss
ASSAY_READOUT: Vd (L/kg)
Use L/kg as the unit, but write only the number.

[Q] Fill blank: measured Vd of the molecule "CCCN1CCC(c2nc3cccc(C(N)=O)c3[nH]2)CC1" is ____.
[A] 10.7

---

assay: Half life in CD1 mouse at 3 mg/kg, iv; details: in vivo
ASSAY_READOUT: half-life (h)
Use h as the unit, but write only the number.

[Q] Fill blank: measured half-life of the compound "CCCN1CCC(c2nc3cccc(C(N)=O)c3[nH]2)CC1" is ____.
[A] 1.2

---

assay: Clearance in dog at 4.1 mg/kg; assay type: ADME, organism-based, Canis lupus familiaris; design: dose 4.1 mg/kg; conditions: in vivo
ASSAY_READOUT: clearance (mL/min/kg)
Use mL/min/kg as the unit, but write only the number.

[Q] Fill blank: measured clearance of the compound "CCCN1CCC(c2nc3cccc(C(N)=O)c3[nH]2)CC1" is ____.
[A] 15

---

Dear all, this message contains EC50 results, target or system UniProt P09874.
Use nM as the unit, but write only the number.

In [3]: df
Out[3]:
                                   compound  assay_readout  measured
0  CC(C)N1CCC(c2nc3c(C(N)=O)cc(Cl)cc3[nH]2)CC1           EC50         9

Please find the next compound below.
[Q] Give UniProt P09874 EC50 for NC(=O)c1cccc2[nH]c(C3CCN(CCc4ccccc4)C3)nc12 (stereo not drawn)
[A] 6

---

test: Half life in dog at 4.1 mg/kg, iv; assay type: ADME, organism-based, Canis lupus familiaris; design: dose 4.1 mg/kg, route intravenous; settings: in vivo
ASSAY_READOUT: half-life (h)
Use h as the unit, but write only the number.

[Q] Fill blank: measured half-life of the compound "CCCN1CCC(c2nc3cccc(C(N)=O)c3[nH]2)CC1" is ____.
[A] 2.7

---

experiment: Volume of distribution at steady state in monkey at 4.1 mg/kg; format: ADME, organism-based, Macaca mulatta; parameters: dose 4.1 mg/kg; details: rhesus monkey, in vivo, read-out: Vdss
ASSAY_READOUT: Vd (L/kg)
Use L/kg as the unit, but write only the number.

[Q] Fill blank: measured Vd of the compound "CCCN1CCC(c2nc3cccc(C(N)=O)c3[nH]2)CC1" is ____.
[A] 4.9

---

Reported Ki values follow for various compounds
biological target: Poly [ADP-ribose] polymerase 1 (Homo sapiens)
Use nM as the unit, but write only the number.

In [3]: df
Out[3]:
                                   compound  measured
0  CC(C)N1CCCCC1c1nc2c(C(N)=O)cccc2[nH]1 (centres undefined)        45
1  N#Cc1ccc(N2CCC(c3nc4c(C(N)=O)cccc4[nH]3)CC2)cc1         3

[Q] Fill blank: measured Ki of the compound "CC(C)N1CCC[C@@H]1c1nc2cccc(C(N)=O)c2[nH]1" is ____.
[A] 21

[Q] Fill blank: measured Ki of the compound "CC(C)N1CCC(c2nc3c(C(N)=O)cc(Cl)cc3[nH]2)CC1" is ____.
[A] 18

[Q] Fill blank: measured Ki of the compound "CC(C)N1CCC(c2nc3c(C(N)=O)cccc3[nH]2)CC1" is ____.
[A] 7

[Q] Fill blank: measured Ki of the compound NC(=O)c1cccc2[nH]c(C3CCCNC3)nc12 (centres undefined) is ____.
[A] 11

[Q] Fill blank: measured Ki of the compound "CC(=O)N1CCC(c2nc3cccc(C(N)=O)c3[nH]2)CC1" is ____.
[A] 59

---

test: Cmax in CD1 mouse at 10 mg/kg, po; assay type: ADME, organism-based; set-up: dose 10 mg/kg, route oral; details: in vivo
Cmax strictly under 400 ng/mL means class 1; at 400 ng/mL or over means class 0.

Some solved entries appear below for comparison.
In [3]: df
Out[3]:
                                   compound    label
0       NC(=O)c1cccc2[nH]c([C@H]3CCCN3)nc12  class 0
1  NC(=O)c1cccc2[nH]c(C3CCN(CCc4ccccc4)C3)nc12 (configuration not stated)  class 0
2  NC(=O)c1cccc2[nH]c(C3CCCNC3)nc12 (configuration not stated)  class 1

[Q] Answer whether the compound "CN1CCC[C@@H]1c1nc2c(C(N)=O)cccc2[nH]1" has Cmax strictly less than 400 ng/mL
[A] class 1

[Q] Answer whether the compound CC(C)N1CCCC(c2nc3cccc(C(N)=O)c3[nH]2)C1 (configuration not stated) has Cmax strictly less than 400 ng/mL
[A] class 0

[Q] Answer whether the compound "CC(C)N1CCC(c2nc3c(C(N)=O)cc(Cl)cc3[nH]2)CC1" has Cmax strictly less than 400 ng/mL
[A] class 1
